Measured Target: T1, extracellular domain (ECD) of human αKlotho, amino acids E34-S981 with C-terminal 6-His tag (R&D Systems … (human, UniProt Q9UEF7 34-981))
T1 construct: range 34-981; also called αKlotho (aa34-981); target antigen
T1 sequence: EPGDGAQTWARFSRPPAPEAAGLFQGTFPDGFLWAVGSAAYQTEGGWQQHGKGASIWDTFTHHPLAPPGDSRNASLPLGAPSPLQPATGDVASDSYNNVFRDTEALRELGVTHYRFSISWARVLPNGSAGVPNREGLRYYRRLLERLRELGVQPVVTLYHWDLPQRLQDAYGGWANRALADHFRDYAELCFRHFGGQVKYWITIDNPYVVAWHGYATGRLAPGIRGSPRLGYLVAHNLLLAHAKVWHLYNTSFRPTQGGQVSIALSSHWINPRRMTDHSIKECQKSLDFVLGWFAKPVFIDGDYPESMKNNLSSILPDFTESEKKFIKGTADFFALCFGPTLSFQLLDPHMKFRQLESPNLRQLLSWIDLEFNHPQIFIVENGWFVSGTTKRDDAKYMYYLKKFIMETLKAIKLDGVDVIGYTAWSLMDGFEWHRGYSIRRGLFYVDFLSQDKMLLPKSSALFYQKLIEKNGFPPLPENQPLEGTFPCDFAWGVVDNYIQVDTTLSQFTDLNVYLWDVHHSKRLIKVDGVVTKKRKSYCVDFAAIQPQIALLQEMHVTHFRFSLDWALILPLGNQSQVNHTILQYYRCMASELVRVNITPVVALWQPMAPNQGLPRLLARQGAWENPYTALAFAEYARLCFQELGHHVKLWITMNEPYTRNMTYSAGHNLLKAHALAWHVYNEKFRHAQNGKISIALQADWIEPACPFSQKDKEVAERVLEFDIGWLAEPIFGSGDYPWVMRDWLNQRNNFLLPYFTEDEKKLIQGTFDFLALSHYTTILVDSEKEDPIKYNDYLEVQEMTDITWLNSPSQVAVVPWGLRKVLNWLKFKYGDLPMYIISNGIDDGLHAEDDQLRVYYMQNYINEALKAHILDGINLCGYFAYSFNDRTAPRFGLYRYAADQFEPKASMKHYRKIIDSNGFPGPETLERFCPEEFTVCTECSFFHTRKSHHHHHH
Test: SPR, Fab captured by anti-H+L IgG, αKlotho injected at 50 to 6.25 ug/ml, Langmuir fit [continued]
Measurement Name: kon
Just the number plus its unit, please.

Solved cases (2 shown):
[
  {
    "Binder": "anti-αKlotho Fab clone 4813 (Fab, V domains shown, Fab (also as Fab-phage); FLAG tag on light chain; also called sb182) VH: EVQLVESGGGLVQPGGSLRLSCAASGFNLYSSSIHWVRQAPGKGLEWVASISPYSGYTYYADSVKGRFTISADTSKNTAYLQMNSLRAEDTAVYYCARYYSGWYSPAWWYGIDYWGQGTLVTVSS VL: DIQMTQSPSSLSASVGDRVTITCRASQSVSSAVAWYQQKPGKAPKLLIYSASSLYSGVPSRFSGSRSGTDFTLTISSLQPEDFATYYCQQAAWGGAPITFGQGTKVEIKR",
    "kon": "588000 M⁻¹ s⁻¹"
  },
  {
    "Binder": "anti-αKlotho Fab clone 4818 (Fab, V domains shown, Fab (also as Fab-phage); FLAG tag on light chain; also called sb187) VH: EVQLVESGGGLVQPGGSLRLSCAASGFNISYSSIHWVRQAPGKGLEWVASISPYSGYTYYADSVKGRFTISADTSKNTAYLQMNSLRAEDTAVYYCARSGHSVYWWWSHFGMDYWGQGTLVTVSS VL: DIQMTQSPSSLSASVGDRVTITCRASQSVSSAVAWYQQKPGKAPKLLIYSASSLYSGVPSRFSGSRSGTDFTLTISSLQPEDFATYYCQQPYSPITFGQGTKVEIKR",
    "kon": "512000 M⁻¹ s⁻¹"
  }
]

Shifting focus to the binder that follows.
Measured kon of anti-αKlotho Fab clone 4809 (Fab, V domains shown, Fab (also as Fab-phage); FLAG tag on light chain; also called sb178) VH: EVQLVESGGGLVQPGGSLRLSCAASGFNIYSYYIHWVRQAPGKGLEWVASIYSYYGSTSYADSVKGRFTISADTSKNTAYLQMNSLRAEDTAVYYCARSGPWAWYGLDYWGQGTLVTVSS VL: DIQMTQSPSSLSASVGDRVTITCRASQSVSSAVAWYQQKPGKAPKLLIYSASSLYSGVPSRFSGSRSGTDFTLTISSLQPEDFATYYCQQSGWAYHPITFGQGTKVEIKR : 560000 M⁻¹ s⁻¹
